- Test system: 855422-203-R-J1-PDC complex spheroid viability;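 note: spheroids exposed to compounds for seven days before readout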
- run description: Anticancer human tumor 855422-203-R-J1-PDC patient-derived bladder carcinoma cell line growth inhibition [POLQ]
- condition notes: second compound 3.16 µM; first compound 0.01 µM; stronger effect = lower value
In this section we review reported viability, T/C values for a set of compounds.

Before answering, review these 4 worked examples.
Task item: Tell me viability, T/C reported for CC[C@@]1(O)C(=O)OCc2c1cc1n(c2=O)Cc2cc3c(CN(C)C)c(O)ccc3nc2-1 + Cc1cccc(N(C)C(=O)C2C(O)CCN2c2nc(C)cc(C(F)(F)F)c2C#N)c1
Reply: 94.9%

Task item: Tell me viability, T/C reported for C=CCn1c(=O)c2cnc(Nc3ccc(N4CCN(C)CC4)cc3)nc2n1-c1cccc(C(C)(C)O)n1 + COC1C(OC(N)=O)C(O)C(Oc2ccc3c(O)c(NC(=O)c4ccc(O)c(CC=C(C)C)c4)c(=O)oc3c2C)OC1(C)C
Reply: 95.4%

Task item: Tell me viability, T/C reported for COc1cccc(OCCCN)c1-c1cc(Nc2cnc(C#N)cn2)n[nH]1 + Nc1ccc(C#CCN(C(=O)Cc2ncc(C(F)(F)F)cc2C(F)(F)F)c2ccc(F)cc2)nn1
Reply: 178%

Task item: Tell me viability, T/C reported for CC[C@@]1(O)C(=O)OCc2c1cc1n(c2=O)Cc2cc3c(CN(C)C)c(O)ccc3nc2-1 + Nc1ccc(C#CCN(C(=O)Cc2ncc(C(F)(F)F)cc2C(F)(F)F)c2ccc(F)cc2)nn1
Reply: 117%

Could you now consider this next compound?
Task item: Tell me viability, T/C reported for CCc1c2c(nc3ccc(O)cc13)-c1cc3c(c(=O)n1C2)COC(=O)[C@]3(O)CC + COC1C(OC(N)=O)C(O)C(Oc2ccc3c(O)c(NC(=O)c4ccc(O)c(CC=C(C)C)c4)c(=O)oc3c2C)OC1(C)C
Reply: 11.5%
